Biological target: LPA1 (Homo sapiens, UniProt Q92633)
Construct: expressed in transfected cells
Sequence (Q92633 whole entry): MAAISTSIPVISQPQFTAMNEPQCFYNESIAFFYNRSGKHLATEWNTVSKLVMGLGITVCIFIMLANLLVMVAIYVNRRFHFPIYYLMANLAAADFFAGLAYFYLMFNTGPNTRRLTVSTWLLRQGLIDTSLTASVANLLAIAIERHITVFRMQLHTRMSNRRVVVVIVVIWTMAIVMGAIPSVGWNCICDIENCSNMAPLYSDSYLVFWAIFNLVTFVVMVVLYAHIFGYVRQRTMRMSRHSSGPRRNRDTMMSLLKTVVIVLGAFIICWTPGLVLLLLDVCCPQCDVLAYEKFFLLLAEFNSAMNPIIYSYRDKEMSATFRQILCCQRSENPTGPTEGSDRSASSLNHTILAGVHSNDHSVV
Assay: Ca2+ transients (agonism / inhibition of LPA response) in RH7777 cells stably expressing LPA1
Assay type: cell-based
Details: inhibition of LPA-induced Ca2+ transients, RH7777 cells expressing LPA1; read-out: LPA1 IC50
# IC50 values compiled below
Kindly provide the numeric value in µM only, without the unit symbol.

Reported IC50 for LPA1 (Homo sapiens, UniProt Q92633), given CCCCCCCC(=O)OC[C@H](COP(=O)(O)OP(=O)(O)O)OC(=O)CCCCCCC [DGPP, reference compound] ?
5.5

Reported IC50 for LPA1 (Homo sapiens, UniProt Q92633), given "CCCCCCCCCCCCCCC(F)(F)P(=O)(O)O" ?
2.5

* * *

Target: LPA1 (Homo sapiens)
Construct: expressed in transfected cells
Test: Ca2+ transients (agonism / inhibition of LPA response) in RH7777 cells stably expressing LPA1
Assay type: cell-based
Conditions: inhibition of LPA-induced Ca2+ transients, RH7777 cells expressing LPA1; read-out: LPA1 IC50
# IC50 values compiled below

Requested read-out: IC50. Entry: "CCCCCC=CCCCOP(=O)(O)O"
> 10 µM

Requested read-out: IC50. Entry: "CCCCCCCCC=CCCCCCCCCOP(=O)(O)O"
> 30 µM

Requested read-out: IC50. Entry: Cc1noc(-c2ccc(CSCCC(=O)O)cc2)c1NC(=O)OC(C)c1ccccc1Cl (stereo not drawn) [Ki16425, reference compound]
0.762 µM

* * *

Target: LPA1 (Homo sapiens)
Construct: expressed in transfected cells
Test: Ca2+ transients (agonism / inhibition of LPA response) in RH7777 cells stably expressing LPA1
Format: cell-based
Conditions: inhibition of LPA-induced Ca2+ transients, RH7777 cells expressing LPA1; read-out: LPA1 IC50
ASSAY METRIC: IC50

CCCCCCCCCCP(=O)(O)O [Compound 9a, n-decyl-phosphonate] :: > 30 µM
CCCCCCCCCCCCP(=O)(O)O [Compound 9b, n-dodecyl-phosphonate] :: > 30 µM
CCCCCCCCCCCCCCCCCCP(=O)(O)O [Compound 9d, n-octadecyl-phosphonate] :: > 30 µM

Kindly consider the entry below.
Requested read-out: IC50. Entry: "CCC=CCCCCCCCCOP(=O)(O)O"
> 10 µM

* * *

# log10 of IC50 values compiled below
Target: LPA3 (Homo sapiens, UniProt Q9UBY5)
Construct: expressed in transfected cells
Sequence (Q9UBY5 whole entry): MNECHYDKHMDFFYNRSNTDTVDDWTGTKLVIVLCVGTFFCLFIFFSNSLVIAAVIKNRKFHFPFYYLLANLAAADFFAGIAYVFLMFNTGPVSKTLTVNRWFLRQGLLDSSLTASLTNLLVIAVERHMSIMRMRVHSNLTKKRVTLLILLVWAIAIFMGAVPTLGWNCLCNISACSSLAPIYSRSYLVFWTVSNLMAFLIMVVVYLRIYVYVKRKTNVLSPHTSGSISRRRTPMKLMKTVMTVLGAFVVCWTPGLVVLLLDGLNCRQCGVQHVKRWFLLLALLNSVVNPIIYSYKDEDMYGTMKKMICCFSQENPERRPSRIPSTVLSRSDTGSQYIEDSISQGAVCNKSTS
Test: Ca2+ transients (agonism / inhibition of LPA response) in RH7777 cells stably expressing LPA3
Format: cell-based
Conditions: inhibition of LPA-induced Ca2+ transients, RH7777 cells expressing LPA3; read-out: LPA3 IC50
# values: log10(IC50), units nM

Known log10 of IC50 results, listed for orientation:
CCCCCCCCCCP(=O)(O)O [Compound 9a, n-decyl-phosphonate] :: 3.08
CCCCCCCCCCCCCCC(F)(F)P(=O)(O)O :: 3.18
Cc1noc(-c2ccc(CSCCC(=O)O)cc2)c1NC(=O)OC(C)c1ccccc1Cl (centres unmarked) [Ki16425, reference compound] :: 2.48
CCCCCCCCCCCCOP(O)(O)=S :: 1.45
CCCCC=CCCCCCCCCOP(=O)(O)O :: 1.98

Requested read-out: log10 of IC50. Entry: "C=CCCCCCCCCOP(O)(O)=S"
2.53

Requested read-out: log10 of IC50. Entry: CCCCCCCC(=O)OC[C@H](COP(=O)(O)OP(=O)(O)O)OC(=O)CCCCCCC [DGPP, reference compound]
2.66

Requested read-out: log10 of IC50. Entry: "C=CCCCCCCCCOP(=O)(O)O"
2.89

Requested read-out: log10 of IC50. Entry: "CCC=CCCCCCCCCOP(=O)(O)O"
1.51

Requested read-out: log10 of IC50. Entry: "CCCCCCCCCCOP(O)(O)=S"
2.09

Requested read-out: log10 of IC50. Entry: "CCCCCCCCCCCCCCOP(O)(O)=S"
2.21

Requested read-out: log10 of IC50. Entry: CCCCCCCCCCCCP(=O)(O)O [Compound 9b, n-dodecyl-phosphonate]
2.82

Requested read-out: log10 of IC50. Entry: CCCCCCCC/C=C\CCCCCCCC(=O)N[C@@H](COP(=O)(O)O)Cc1ccc(OCc2ccccc2)cc1 [VPC12249, reference compound]
3.08

Requested read-out: log10 of IC50. Entry: "CCC=CCCCCCCCCCCOP(=O)(O)O"
2.01

Requested read-out: log10 of IC50. Entry: CCCCCCCCCCCCCCP(=O)(O)O [Compound 9c, n-tetradecyl-phosphonate]
3.49

* * *

# Ki values compiled below
Target: LPA1 (Homo sapiens)
Construct: expressed in transfected cells
Experiment: Ca2+ transients (agonism / inhibition of LPA response) in RH7777 cells stably expressing LPA1
Type: cell-based
Conditions: inhibition of LPA-induced Ca2+ transients, RH7777 cells expressing LPA1
Kindly provide the numeric value in nM only, without the unit symbol.

CCCCCCCCCCCCCCC(F)(F)P(=O)(O)O :: 788

Kindly consider the entry below.
Requested read-out: Ki. Entry: Cc1noc(-c2ccc(CSCCC(=O)O)cc2)c1NC(=O)OC(C)c1ccccc1Cl (centres unmarked) [Ki16425, reference compound]
425

* * *

Biological target: LPA3 (Homo sapiens)
Construct: expressed in transfected cells
Assay: Ca2+ transients (agonism / inhibition of LPA response) in RH7777 cells stably expressing LPA3
Type: cell-based
Settings: inhibition of LPA-induced Ca2+ transients, RH7777 cells expressing LPA3; read-out: LPA3 (Ki)
# Ki values compiled below
Kindly provide the numeric value in nM only, without the unit symbol.

Requested read-out: Ki. Entry: "CCCCC=CCCCCCCCCOP(=O)(O)O"
58

Requested read-out: Ki. Entry: "C=CCCCCCCCCOP(=O)(O)O"
504

Requested read-out: Ki. Entry: "CCCCCCCCCCOP(O)(O)=S"
49

Requested read-out: Ki. Entry: "C=CCCCCCCCCOP(O)(O)=S"
128

Requested read-out: Ki. Entry: "CCC=CCCCCCCCCCCOP(=O)(O)O"
40

Requested read-out: Ki. Entry: CCCCCCCCCCCCCCP(=O)(O)O [Compound 9c, n-tetradecyl-phosphonate]
1120

Requested read-out: Ki. Entry: "CCC=CCCCCCCCCOP(=O)(O)O"
27

Requested read-out: Ki. Entry: CCCCCCCCCCCCP(=O)(O)O [Compound 9b, n-dodecyl-phosphonate]
303

* * *

Target: LPA2 (Homo sapiens, UniProt Q9HBW0)
Construct: expressed in transfected cells
Sequence (Q9HBW0 whole entry): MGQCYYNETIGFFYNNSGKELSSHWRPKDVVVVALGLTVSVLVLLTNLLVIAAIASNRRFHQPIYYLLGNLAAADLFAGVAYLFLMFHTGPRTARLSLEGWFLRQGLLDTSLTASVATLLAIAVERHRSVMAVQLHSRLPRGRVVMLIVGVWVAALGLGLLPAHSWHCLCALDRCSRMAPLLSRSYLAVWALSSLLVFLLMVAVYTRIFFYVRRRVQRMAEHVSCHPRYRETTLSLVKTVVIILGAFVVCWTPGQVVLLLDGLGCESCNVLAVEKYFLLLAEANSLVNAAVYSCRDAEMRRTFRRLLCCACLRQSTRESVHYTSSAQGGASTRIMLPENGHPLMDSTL
Assay: Ca2+ transients (agonism / inhibition of LPA response) in RH7777 cells stably expressing LPA2
Format: cell-based
Settings: inhibition of LPA-induced Ca2+ transients, RH7777 cells expressing LPA2; read-out: LPA2 IC50
Description: The culture medium (DMEM containing 10% FBS) was then replaced with modified Krebs solution (120 mM NaCl, 5 mM KCl, 0.62 mM MgSO4, 1.8 mM CaCl2, 10 mM HEPES, 6 mM glucose, pH 7.4) and the cells were serum starved for 6–8 hours (12 h for PC-3 cells). […] Changes in intracellular Ca^2+ concentration were monitored by measuring the ratio of emitted light intensity at 520 nm in response to excitation by 340 nm and 380 nm wavelength lights, respectively. Each well was monitored for 80–120 seconds. […]
pIC50: −log10 of the molar value.
ASSAY METRIC: pIC50

Known pIC50 results, listed for orientation:
CCC=CCCCCCCCCCCOP(=O)(O)O [Compound 5e] :: < 4.52
CCCCCCCCCCCCCCP(=O)(O)O [Compound 9c, n-tetradecyl-phosphonate] :: 5.26
CCCCCCCCCCCCCCC(F)(F)P(=O)(O)O [Compound 11] :: < 4.52

Kindly consider the entry below.
Reported pIC50 for LPA2 (Homo sapiens, UniProt Q9HBW0), given CCCCCCCC/C=C\CCCCCCCC(=O)N[C@@H](COP(=O)(O)O)Cc1ccc(OCc2ccccc2)cc1 [VPC12249, reference compound] ?
< 4.52

* * *

Target: LPA2 (Homo sapiens, UniProt Q9HBW0)
Construct: expressed in transfected cells
Test: Ca2+ transients (agonism / inhibition of LPA response) in RH7777 cells stably expressing LPA2
Type: cell-based
Conditions: induction of Ca2+ transients, RH7777 cells expressing LPA2; read-out: LPA2 EC50
# EC50 values compiled below

CCCCCCCCCCCCCCP(=O)(O)O [Compound 9c, n-tetradecyl-phosphonate] :: > 30 µM
CCCCCC=CCCCOP(=O)(O)O :: > 10 µM
CCC=CCCCCCCCCOP(=O)(O)O :: 0.717 µM
CCC=CCCCCCCCCCCOP(=O)(O)O :: 4.1 µM
CCCCCCCCC=CCCCCCCCCOP(=O)(O)O :: > 30 µM

Kindly consider the entry below.
Requested read-out: EC50. Entry: CCCCCCCC/C=C\CCCCCCCC(=O)N[C@@H](COP(=O)(O)O)Cc1ccc(OCc2ccccc2)cc1 [VPC12249, reference compound]
> 30 µM
